Values compiled from ChEMBL document CHEMBL5512692.

Protocol Text: Aggregation property of compound in DMEM media assessed as critical aggregation concentration by DLS assay
Type: physicochemical
log10 CAC values, listed per item
Friendly reminder: values = log10 of CAC, unit µM.

Looking up O=c1cc(-c2ccc(O)c(O)c2)oc2cc(O)cc(O)c12 , I see its log10 CAC listed as 1.45

Looking up Cc1cc(O)c2c(c1)C(=O)c1cc(O)cc(O)c1C2=O , I see its log10 CAC listed as 1.80

Looking up Oc1ccc(-c2[o+]c3cc(O)cc(O)c3cc2O)cc1.[Cl-] [PELARGONIDIN CHLORIDE] , I see its log10 CAC listed as 1.75

Looking up Cc1cc(O)c2c(=O)c3c(O)cc(O)c4c5c(O)cc(O)c6c(=O)c7c(O)cc(C)c8c1c2c(c34)c(c78)c65 , I see its log10 CAC listed as 0.57

Looking up O=c1c(O)c(-c2ccc(O)c(O)c2)oc2cc(O)cc(O)c12 , I see its log10 CAC listed as 2.00

Looking up CC1(C)[C@@H](O[C@H]2O[C@H](C(=O)O)[C@@H](O)[C@H](O)[C@H]2O[C@@H]2O[C@H](C(=O)O)[C@@H](O)[C@H](O)[C@H]2O)CC[C@]2(C)[C@H]3C(=O)C=C4[C@@H]5C[C@@](C)(C(=O)O)CC[C@]5(C)CC[C@@]4(C)[C@]3(C)CC[C@@H]12 , I see its log10 CAC listed as 1.18

Looking up CC1(C)Cc2c(-c3ccccc3)c(-c3ccc(Cl)cc3)c(CC(=O)O)n2C1 , I see its log10 CAC listed as 0.74

Looking up CCOC(=O)c1c(CSc2ccccc2)n(C)c2cc(Br)c(O)c(CN(C)C)c12 , I see its log10 CAC listed as 1.45

Looking up C=C[C@@](C)(/C=C/c1ccc(O)cc1)CCC=C(C)C , I see its log10 CAC listed as 0.40

Looking up C=C(C)[C@@H]1CCC(C)=C[C@H]1c1c(O)cc(CCCCC)c(C(=O)O)c1O , I see its log10 CAC listed as 1.15
